# assay: MTT cell viability assay, HBEC-5i
# run conditions: human, HBEC-5i cells
experimental endpoint: viability at 48 h, 20 µM

Suppose we examine the molecule COc1cccc(-c2ccc(NC(=O)C3=C(C(=O)O)CCC3)c(F)c2)c1 ; what viability at 48 h, 20 µM value has been reported?
≤ 90%

###

# Test system: Huh-7 cells
# assay: MTT cell viability assay, Huh-7
# run conditions: 20 µM, Huh-7, 48 h
experimental endpoint: loss/reduction in cell viability vs vehicle-treated cells

Recorded results for 5 molecules are shown here.
CC[C@@H]([C@H](C)O)n1ncn(-c2ccc(N3CCN(c4ccc(OC[C@@H]5CO[C@@](Cn6cncn6)(c6ccc(F)cc6F)C5)cc4)CC3)cc2)c1=O = 50%
C[C@@H]1CCCN1CCc1cc2cc(-c3ccc(C#N)cc3)ccc2o1 = approx. 10%
OCCN1CCN(CCCN2c3ccccc3Sc3ccc(C(F)(F)F)cc32)CC1 = 90%
CCN(CC)CCOc1ccc(C(O)(Cc2ccc(Cl)cc2)c2ccc(C)cc2)cc1 (stereo not drawn) = 90%
COc1cccc(-c2ccc(NC(=O)C3=C(C(=O)O)CCC3)c(F)c2)c1 = approx. 10%

Consider the molecule shown here: CCCCc1oc2ccccc2c1C(=O)c1cc(I)c(OCCN(CC)CC)c(I)c1 What is its recorded loss/reduction in cell viability vs vehicle-treated cells?
approx. 10%
